Endpoint summary: IC50, system: UniProtKB P49759, multiple sources combined.

Study these solved cases before continuing.
CCCCNc1nc(Nc2ccc(S(=O)(=O)N3CCC(N4CCOCC4)CC3)cc2OC)nc2[nH]cc(C(F)(F)F)c12 :: 301 to 1000 nM
COc1cc(S(=O)(=O)N2CCOCC2)ccc1Nc1nc(NCC2CCC2)c2cc[nH]c2n1 :: 301 to 1000 nM

Data request: Give UniProtKB P49759 IC50 for CCOc1nn([C@@H](C)CO)c2c1/C=C/c1n[nH]c3cc(F)c(cc13)-c1cnn(C)c1O[C@@H](C)CN(C)C2
Data returned: 2.37 nM

Data request: Give UniProtKB P49759 IC50 for COc1cc(S(=O)(=O)N2CCC(N3CCOCC3)CC2)ccc1Nc1cc(NC2CCC2)c2c(C#N)c[nH]c2n1
Data returned: 301 to 1000 nM

Data request: Give UniProtKB P49759 IC50 for C=CC(=O)Nc1cc(-n2c(=O)ccc3cnc4ccc(-c5cn[nH]c5)cc4c32)ccc1C
Data returned: 384 nM

Data request: Give UniProtKB P49759 IC50 for COc1cc(S(=O)(=O)N2CCC(N3CCOCC3)CC2)ccc1Nc1nc(NCC2CC2)c2cc[nH]c2n1
Data returned: 301 to 1000 nM

Data request: Give UniProtKB P49759 IC50 for CCNc1nc(Nc2ccc(C(=O)N3CCN(C4COC4)CC3)c3c2OCCO3)nc2[nH]cc(C(F)(F)F)c12
Data returned: < 100 nM

Data request: Give UniProtKB P49759 IC50 for CCNc1cc(Nc2ccc(C(=O)N3CCOCC3)c3c2OCCO3)nc2[nH]cc(Cl)c12
Data returned: 301 to 1000 nM
